parameter measured: melting point

// solved cases for melting point follow
Brc1ccc(COc2ccc(C3CC(c4ccccc4)=NN3)cc2)cc1 (stereo not drawn) [Compound 2d] ... 98 to 100 °C
CC(=O)n1nc(-c2ccccc2)cc1-c1ccc2[nH]ccc2c1 [Compound 2f] ... 65 to 66 °C
CC(=O)n1nc(-c2ccc(Cl)cc2)cc1-c1cccc2ccccc12 [Compound 2g] ... 53 to 55 °C
c1ccc(C2=NNC(c3cccc4ccccc34)C2)cc1 (stereo not drawn) [Compound 2a] ... 45 to 47 °C
Clc1ccc(C2=NNC(c3ccc4[nH]ccc4c3)C2)cc1 (stereo not drawn) [Compound 2b] ... 96 to 98 °C

The record that follows has no melting point shown yet.
Q. Returns the measured melting point for the input compound. Input: CC(=O)n1nc(-c2ccccc2)cc1-c1cccc(Oc2ccccc2)c1 [Compound 2h]
A. 44 to 46 °C
